Molecular target: human A1 receptor (Homo sapiens)
Sequence (P30542 whole entry): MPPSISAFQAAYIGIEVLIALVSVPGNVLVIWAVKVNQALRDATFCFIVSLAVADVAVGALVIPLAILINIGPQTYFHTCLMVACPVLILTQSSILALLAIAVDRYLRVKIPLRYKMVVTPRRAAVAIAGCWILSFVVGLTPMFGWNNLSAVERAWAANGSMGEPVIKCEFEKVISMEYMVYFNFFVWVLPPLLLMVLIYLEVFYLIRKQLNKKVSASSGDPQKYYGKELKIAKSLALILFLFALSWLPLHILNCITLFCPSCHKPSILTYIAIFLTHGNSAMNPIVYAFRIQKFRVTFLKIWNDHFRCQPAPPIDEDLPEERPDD
Assay: Adenosine antagonistic activity, radioligand binding with [3H]DPCPX
Conditions: 4.5 nM
observed property: Ki (nM)

{"columns": ["molecule", "unit name", "experimental result"],
 "data": [
  ["CNc1nc(-c2ccccc2)c(-c2ccc(=O)n(C(C)C)n2)s1 [Example 15]", "nM", 0.12]
]}

A = CCNC(=O)c1nc(-c2ccccc2)c(-c2ccc(=O)n(C(C)C)n2)s1 [Example 214]
B = CCCCCC(=O)Nc1nc(-c2ccccc2)c(-c2ccc(=O)n(C(C)C)n2)s1 [Example 3]
// query Of the pair A and B , name the member with the lesser recorded Ki. Kindly state the label of the option you pick.
// result B
(B: 0.27 nM, A: 1.14 nM)

a = CC(C)n1nc(-c2sc(C(=O)NCc3ccncc3)nc2-c2ccccc2)ccc1=O [Example 233]
b = CC(C)n1nc(-c2sc(NC(=O)c3ccccc3)nc2-c2ccc(F)cc2)ccc1=O [Example 78]
c = COc1ccc(CC(=O)Nc2nc(-c3ccccc3)c(-c3ccc(=O)n(C(C)C)n3)s2)cc1 [Example 9]
// query Sort the 3 molecules by Ki; largest first, smallest last. # respond with the labels, arranged in the requested order
// result a, b, c
(a: 1.03 nM, b: 0.45 nM, c: 0.28 nM)

A = Cc1cccc(NC(=O)Nc2nc(-c3ccccc3)c(-c3ccc(=O)n(C(C)C)n3)s2)c1 [Example 10]
B = CC(C)n1nc(-c2sc(NC(=O)CNCc3ccncc3)nc2-c2ccccc2)ccc1=O [Example 100]
// query Between A and B , whose recorded Ki is greater? Kindly state the label of the option you pick.
// result B
(B: 0.61 nM, A: 0.38 nM)

---

observed property: melting point

Here are 5 compounds together with their reported answers.
{"columns": ["compound", "melting point"],
 "data": [
  ["CC(C)n1nc(-c2sc(C(=O)NCCc3ccccn3)nc2-c2ccccc2)ccc1=O", "144 to 147 °C"],
  ["CC(C)n1nc(-c2sc(C(N)=O)nc2-c2ccccc2)ccc1=O", "222 to 223 °C"],
  ["CC(C)n1nc(-c2sc(NC(=O)CNCc3cccnc3)nc2-c2ccccc2)ccc1=O", "156 to 158 °C"],
  ["CC(C)n1nc(-c2sc(NC(=O)c3ccc4ccccc4c3)nc2-c2ccccc2)ccc1=O", "227 to 229 °C"],
  ["CC(C)n1nc(-c2sc(NC(=O)c3ccccc3)nc2-c2ccc(F)cc2)ccc1=O [Example 78]", "228 to 230 °C"]
]}

// query Look up melting point: CC(O)CNCC(=O)Nc1nc(-c2ccccc2)c(-c2ccc(=O)n(C(C)C)n2)s1.Cl (centres unmarked)
// result 209 to 211 °C

// query Look up melting point: CC(C)n1nc(-c2sc(NC(=O)CNCCCN3CCOCC3)nc2-c2ccccc2)ccc1=O.Cl.Cl
// result 211 to 213 °C

// query Look up melting point: CC(C)n1nc(-c2sc(C(=O)NCc3ccccn3)nc2-c2ccc(F)cc2)ccc1=O
// result 203.5 to 205 °C

---

observed property: melting point

{"columns": ["test smiles", "experimental result"],
 "data": [
  ["CCN(CC)CCNCC(=O)Nc1nc(-c2ccccc2)c(-c2ccc(=O)n(C(C)C)n2)s1.Cl.Cl", "157 to 159 °C"],
  ["CC(C)n1nc(-c2sc(C(=O)NCc3ccccn3)nc2-c2cccc(F)c2)ccc1=O", "188 to 189.5 °C"]
]}

Could you now look at the following compound, please?
// query Look up melting point: CCn1nc(-c2sc(C(=O)NC(C)C)nc2-c2ccccc2)ccc1=O
// result 152.5 to 153 °C
